Values from paper PMC10458458

Test system: OVCAR-4
ASSAY METHOD TEXT: NCI-60 screen (SRB)
Format: cell-based, human
APPLIED CONDITIONS: OVCAR-4 (Ovarian Cancer), 10 µM, 48 h; negative = cell death vs time zero
I'd be grateful if you could share measured percent cell growth for these entries.
Give bare numbers, in %.

Please look at the items below and tell me percent cell growth for each one, in order.
1. O=C1N/C(=N\CCc2ccccc2)S/C1=C/c1c[nH]c2ncccc12
2. C=CC/N=C1\NC(=O)/C(=C\c2c[nH]c3ncccc23)S1
3. Cl.O=C1NC(=NCCc2ccccc2)SC1=Cc1c[nH]c2ncccc12 (mixture of isomers) [DJ4-HCl]

[A]
1. 23.8
2. 34.7
3. 32.3

So, "CC/N=C1\NC(=O)/C(=C\c2c[nH]c3ncccc23)S1" ? Its percent cell growth was 19.5
